method: yeast display, Sf9 membrane polyspecificity reagent, FACS + sequencing; frameworks hold sequencing errors

{"residue-sequence": "QVQLVESGGGLVQAGGSLRLSCAASGSTLVLNALGWYRQAPGKERELVAAITISGDTTYYADSVKGRFTISRDNAKNTVYLQMNSLKPEDTAVYYCAAVVSTVDGMEYWGQGTQVTVSS", "polyreactivity (PSR sort gate)": "low polyreactivity"}
{"residue-sequence": "QVQLVESGGGLVQAGGSLRLSCAASGRTFVLYAMGWYRQAPVKERELVASITWSGVSTTYADSVKGRFTISRDNAKNTVYLQMNSLKPEDTAVYYCAKDGLFEQGYPYQLGYWGQGTQVTVSS", "polyreactivity (PSR sort gate)": "low polyreactivity"}
{"residue-sequence": "QVQLVESGGGLVQAGGSLRLSCAASGSIFAAYAMGWYRQAPGKERELVAAIDRGGSTDYADSVKGRFTISRDNAKNTVYLQMNSLKPEDTAVYYCAKGYDYYVRRYYYWGQGTQVTVSS", "polyreactivity (PSR sort gate)": "high polyreactivity"}
{"residue-sequence": "HVQLVESGGGLVQAGGSLRLSCAASGSTFSYYAMGWYRQAPGKERELVAAITSGGRTKYADSVKGRFTISRDNAKNTVYLQMNSLKPEDTAVYYCAKRIEKFSGSLAGRWYDYWGQGTQVTVSS", "polyreactivity (PSR sort gate)": "high polyreactivity"}
{"residue-sequence": "QVQLVESGGGLVQAGGSLRLSCAASGIIFKGYDMGWYRQAPGKERELVAAISSGSTNYADSVKGRFTISRDNAKNTVYLQMNSLKPEDTAVYYCAAYNDTVPSAAHIYESWGQGTQVTVSS", "polyreactivity (PSR sort gate)": "low polyreactivity"}

---

method: yeast display, Sf9 membrane polyspecificity reagent, FACS + sequencing; frameworks hold sequencing errors

{"residue-sequence": "QVQLVESGGGLVQAGGSLRLSCAASGSIFVNYAMGWYRQAPGKERELVAAISGRGGSTYYADSVKGRFTISRDNAKNTVYLQMNSLKPEDTAVFYCARYGYYGHDWGQGTQVTVSS", "polyreactivity (PSR sort gate)": "high polyreactivity"}
{"residue-sequence": "QVQLLESGGMVQAGGLRLSCAASGSVSYQEAMGWYRQAPGKERELVATISFGANTNYADSVKGRFTISRDNAKNTVYLQMNSLKPEDTAVYYCAAESLFYDYYGYWGQGTQVNVSS", "polyreactivity (PSR sort gate)": "low polyreactivity"}
{"residue-sequence": "QVQLVESGGGLVQAGGSLRLSCAASGFTFKGNTMGWYRQAPGKERELVANITRGGTTYYADSVKGRFTISRDNAKNTVYLQMNSLKPEDTAVYYCAARNWPSRGYNYWGQGTQVTVSS", "polyreactivity (PSR sort gate)": "high polyreactivity"}
{"residue-sequence": "QVQLVESGGGLVQAGGSLRLSCAVSGRIFRRNVMGWSRPAPGKERALVAGSSYSGDSTYYADSVKGRFTISRDNAKNTVYLQMNSLKPEDTAVYYCAAALAHYRGMYYWGQGTQVTVSS", "polyreactivity (PSR sort gate)": "low polyreactivity"}
{"residue-sequence": "QVQLVESVGGLVQAGGSLRLSCAASGGTFLFYGMGWYRQAPGKERELVAVITWSGGSTYYADSVKGRFTISRDNAKNTVYLQMKSLKPEDTAVYYCNAANTGSPDYQSIGYNFNYWGQGTQVTVSS", "polyreactivity (PSR sort gate)": "low polyreactivity"}
{"residue-sequence": "PVQLVESGGGLVQAGGSLRLSCAASGSNFEYYTMGWYRQAPGKERELVATISRSADRTYYADSVKGRFTISRDYAKNTVYLQMNILKPEDTAVYDCAKLYPRTTQWIYDYWGQGTQVTVSS", "polyreactivity (PSR sort gate)": "high polyreactivity"}
{"residue-sequence": "QVQLVESGGGLVQAGGSLRLSCAASGFIFFRNAMGWYRQAPGKERELVAAISRSGGITYYADSVKGRFTISRDNAKNTVYLQMNSLKPEDTAVYYCNAAKASREQWTSFDYWGQGTQVTVSS", "polyreactivity (PSR sort gate)": "high polyreactivity"}
{"residue-sequence": "QVQLVDSVGGLVEAGGILRLSCAASGNTFGRNAMGWYRQEPGKESELVAAISFSGSRPYYADSVKGRFTISRDNAKYTVYLQRNSLKPEDTAVYYCNKRGADWTGFFYYQYDFWGQGTQVTVSS", "polyreactivity (PSR sort gate)": "low polyreactivity"}
{"residue-sequence": "QVQLVESGGGLVQAGGSLRLSCAASGRIFSRNAMGWYRQAPGKERELVAAITRIGGSTYYADSVKGRFTISRDTAKNTVYLQMNSRKPEDTAVYYSAARGSGKYGWGQGTQVTVSS", "polyreactivity (PSR sort gate)": "high polyreactivity"}
{"residue-sequence": "QVQLVESGGGLVQAGGILRLSCAASGSTGTYMGSYRQAPGKEREMVAAIDNIGDNTYYADSVKGRFTISRDNAKNTVYLQMNSLKPEDTAVYYCPADFYVYYPWLFEYDYWGQGTQVTVSS", "polyreactivity (PSR sort gate)": "low polyreactivity"}
{"residue-sequence": "QVQLVESGGGLVQAGGSLRLSCAASGSIFRSYAMGWYRQAPGKERELVASISRRGGSTYYADSVKGRFTISRDNAKNTVYFQMNSLKPEDTAVYYCAAVRYNSRVSTTPSEMYYWGQGTLVTVSS", "polyreactivity (PSR sort gate)": "low polyreactivity"}
